Test: plasma and brain PK in mice
Assay type: in vivo
Conditions: mouse, brain, read-out: Brain Plasma AUC Ratio
Description: Table 7a and Table 7b summarize, among other things, the observed plasma and Brain P K properties in animals, and the observed plasma and Brain P K properties predicted in humans, for compound 109 in Table 7a and compound 93 for Table 7b: […]
MEASUREMENT_KIND: Kp
Form field (numeric): enter value without unit.

Query string: Quickly give me recorded Kp for CSc1ccccc1CNCCc1ccc(C#N)cc1O
Result string: 8.39

---

biological target: UniProt P47898; assay: 5-HT receptor activity panel (Table 3); format: cell-based; conditions: Table 3; read-out: 5-HT5A EC50
Sequence (P47898 whole entry, species assumed): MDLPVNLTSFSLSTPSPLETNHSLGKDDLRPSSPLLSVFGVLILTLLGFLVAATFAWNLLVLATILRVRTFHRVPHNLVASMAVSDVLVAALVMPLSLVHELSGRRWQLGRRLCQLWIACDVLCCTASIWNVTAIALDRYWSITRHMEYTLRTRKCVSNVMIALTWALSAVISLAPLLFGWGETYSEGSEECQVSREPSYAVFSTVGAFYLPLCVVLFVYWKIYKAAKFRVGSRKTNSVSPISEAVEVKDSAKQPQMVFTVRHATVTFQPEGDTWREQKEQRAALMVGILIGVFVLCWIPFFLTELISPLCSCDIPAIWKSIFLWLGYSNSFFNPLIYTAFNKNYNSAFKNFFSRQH
MEASUREMENT_KIND: EC50 (µM)
Please reply with the bare figure in µM and do not write the unit itself.

Query string: Indicate the recorded EC50 value for this compound: CSc1ccccc1CNCCc1ccc(C#N)cc1O [Cpd #109]
Result string: 12.3

---

experiment: plasma and brain PK in rat; format: in vivo; conditions: rat, plasma; read-out: Cltot (converted)
MEASUREMENT_KIND: clearance (mL/min/kg)
Write the answer as a number in mL/min/kg, unit excluded.

[
  {
    "SMILES_CODE": "CSc1ccccc1CNCCc1ccc(C#N)cc1O",
    "clearance / mL/min/kg": 53.4
  }
]

Would you kindly look at the next entry?
Query string: Give clearance for COc1cc(C(F)(F)F)ccc1CCNCc1ccccc1O
Result string: 127

---

Listed compounds paired with reported Vd
assay: plasma and brain PK in mice; type: in vivo; settings: mouse, plasma, read-out: Vz
// units = L/kg; emit number, no label

[
  {
    "COMPOUND": "CSc1ccccc1CNCCc1ccc(C#N)cc1O [Cpd #109]",
    "UNIT_ABBREV": "L/kg",
    "Vd": 14
  }
]

Next compound, Vd to be filled in.
Query string: Return Vd for the following compound: COc1cc(C(F)(F)F)ccc1CCNCc1ccccc1O [Cpd #93]
Result string: 15.1

---

tested on: mice; assay: head-twitch response (HTR) in mice; type: in vivo, male C57BL/6J mice; settings: Mus musculus; mice
ED50 under 3 mg/kg gets YES, anything at or over 3 mg/kg gets NO.

Here are 3 molecules together with their reported answers.
[
  {
    "MOLECULE": "COc1cc(C#N)c(F)cc1CCNCc1ccccc1O",
    "ASSIGNED_CATEGORY": "YES"
  },
  {
    "MOLECULE": "COc1cc(C#N)ccc1CCNCc1ccccc1SC",
    "ASSIGNED_CATEGORY": "NO"
  },
  {
    "MOLECULE": "Oc1cc(Cl)ccc1CCNCc1ccccc1O",
    "ASSIGNED_CATEGORY": "YES"
  }
]

Query string: I'd appreciate it if you could check whether CSc1ccccc1CNCCc1ccc(C#N)cc1O has ED50 smaller than 3 mg/kg.
Result string: YES

Query string: Criterion: ED50 strictly below 3 mg/kg. Is it met by COc1cc(C(F)(F)F)ccc1CCNCc1ccccc1O ?
Result string: YES

Query string: # TODO verify ED50 < 3 mg/kg strictly for this molecule: CN(C)CCc1c[nH]c2cccc(OP(=O)(O)O)c12 [Psilocybin, psilocybin, reference compound]
Result string: YES

---

target: 5-HT2B receptor (Homo sapiens); construct: expressed in transfected cells; host or cells: HEK293T; assay: 5-HT2B Gq dissociation BRET functional assay; format: cell-based; conditions: 5-HT2B EC50, nM, Table 3 panel
Sequence (P41595 whole entry): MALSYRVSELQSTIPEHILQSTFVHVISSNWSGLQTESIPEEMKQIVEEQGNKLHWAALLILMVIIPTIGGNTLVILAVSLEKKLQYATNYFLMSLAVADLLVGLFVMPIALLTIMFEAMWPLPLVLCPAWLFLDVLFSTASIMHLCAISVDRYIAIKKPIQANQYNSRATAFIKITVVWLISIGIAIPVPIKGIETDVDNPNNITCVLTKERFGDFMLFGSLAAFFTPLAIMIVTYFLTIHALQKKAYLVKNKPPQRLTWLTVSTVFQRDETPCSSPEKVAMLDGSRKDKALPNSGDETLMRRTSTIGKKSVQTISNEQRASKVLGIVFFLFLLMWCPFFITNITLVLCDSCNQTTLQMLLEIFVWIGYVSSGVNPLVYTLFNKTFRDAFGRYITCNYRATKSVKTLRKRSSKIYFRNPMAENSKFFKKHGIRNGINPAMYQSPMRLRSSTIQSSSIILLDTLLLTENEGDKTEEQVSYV
MEASUREMENT_KIND: EC50 (nM)
Lab book: enter the figure in nM, no units written.

Query string: Entry COc1cc(C(F)(F)F)ccc1CCNCc1ccccc1O needs its EC50 filled in; supply it.
Result string: 64.2

---

biological target: 5-HT2A receptor (Homo sapiens); construct: expressed in transfected cells; host or cells: HEK293T; assay: 5-HT2A Gq dissociation BRET functional assay; assay type: cell-based; conditions: 5-HT2A BRET EC50 (nM), Table 2; at least three replicate trials
Sequence (P28223 whole entry): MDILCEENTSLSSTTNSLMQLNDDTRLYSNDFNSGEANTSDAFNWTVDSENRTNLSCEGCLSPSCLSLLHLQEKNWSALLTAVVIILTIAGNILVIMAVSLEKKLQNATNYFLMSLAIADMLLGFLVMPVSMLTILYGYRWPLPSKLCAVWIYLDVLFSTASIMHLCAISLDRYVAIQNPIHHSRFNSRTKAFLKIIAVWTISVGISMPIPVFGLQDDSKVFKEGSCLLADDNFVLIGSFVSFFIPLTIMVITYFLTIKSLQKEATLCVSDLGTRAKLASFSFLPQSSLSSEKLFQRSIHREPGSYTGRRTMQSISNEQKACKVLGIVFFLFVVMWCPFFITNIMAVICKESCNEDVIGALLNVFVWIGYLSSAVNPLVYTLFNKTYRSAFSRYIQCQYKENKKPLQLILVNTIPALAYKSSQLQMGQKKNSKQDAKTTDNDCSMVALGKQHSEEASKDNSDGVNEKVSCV
MEASUREMENT_KIND: EC50 (nM)
Unit nM implied. Number only.

[
  {
    "COMPOUND": "COc1cc(C#N)ccc1CCNCc1c(Cl)cccc1Cl",
    "UNIT_ABBREV": "nM",
    "EC50": 496
  },
  {
    "COMPOUND": "COc1cc(C#N)ccc1CCNCc1ccc(F)cc1F",
    "UNIT_ABBREV": "nM",
    "EC50": 14100
  },
  {
    "COMPOUND": "COc1ccc(CCNCc2ccccc2SC)c(O)c1",
    "UNIT_ABBREV": "nM",
    "EC50": 4.6
  }
]

Query string: Answer with EC50 of COc1cc(C#N)c(F)cc1CCNCc1ccccc1SC measured for 5-HT2A receptor (Homo sapiens).
Result string: 7.8

Query string: Answer briefly: EC50 recorded on 5-HT2A receptor (Homo sapiens) for Oc1cc(C(F)(F)F)ccc1CCNCc1ccccc1O
Result string: 1

Query string: Look up and report measured EC50 (5-HT2A receptor (Homo sapiens)) for the following compound: COc1cc(C#N)ccc1CCNCc1ccc(F)cc1
Result string: 13100

Query string: Look up and report measured EC50 (5-HT2A receptor (Homo sapiens)) for the following compound: COc1cc(C#N)c(F)cc1CCNCc1ccccc1O [Cpd #117]
Result string: 3.8

Query string: Tell me EC50 of COc1cc(C#N)ccc1CCN(C)Cc1ccccc1Cl when tested on 5-HT2A receptor (Homo sapiens).
Result string: 0.01

Query string: Quote EC50 with test system 5-HT2A receptor (Homo sapiens) for Cc1ccc(CCNCc2cccc3c2OCO3)c(O)c1
Result string: 49

Query string: State EC50 on 5-HT2A receptor (Homo sapiens). Entry: CSc1ccc(CCNCc2ccccc2O)c(O)c1
Result string: 1.6

Query string: Using 5-HT2A receptor (Homo sapiens) as the test system, report measured EC50 of Oc1cc(Cl)ccc1CCNCc1ccccc1O .
Result string: 2.4

Query string: Report EC50 from 5-HT2A receptor (Homo sapiens) testing of COc1cccc(CNCCc2ccc(C#N)cc2OC)c1
Result string: 84

Query string: Report EC50 under test system 5-HT2A receptor (Homo sapiens) for COc1cc(C#N)ccc1CCNCc1ccccc1O .
Result string: 4.9

Query string: Fill: EC50 (5-HT2A receptor (Homo sapiens)) for this compound COc1cc(C#N)ccc1CCNCc1cccc(F)c1
Result string: 133

Query string: Provide EC50, system 5-HT2A receptor (Homo sapiens), entry COc1cc(Oc2ccccc2)ccc1CCN
Result string: 2890

Query string: Under 5-HT2A receptor (Homo sapiens): report EC50 of COc1cc(C#N)ccc1CCNCc1cccc2c1OCO2 .
Result string: 19.7

Query string: # return EC50 of COc1ccc(CNCCc2ccc(C#N)cc2OC)cc1 (system: 5-HT2A receptor (Homo sapiens))
Result string: 3950

Query string: # lookup: 5-HT2A receptor (Homo sapiens) EC50, key = COc1ccc(CCNCc2ccccc2O)c(OC)c1 [Cpd #96, reference compound]
Result string: 2.3

Query string: Provide measured EC50 on 5-HT2A receptor (Homo sapiens) for N#Cc1cc(O)c(CCNCc2ccccc2O)cc1F please.
Result string: 7.8

Query string: Please report EC50 with 5-HT2A receptor (Homo sapiens) for item CSc1ccccc1CNCCc1ccc(C(F)F)cc1O .
Result string: 3.2

Query string: Under 5-HT2A receptor (Homo sapiens): report EC50 of COc1cc(C#N)ccc1CCNCc1cccc2c1CCO2 .
Result string: 135

Query string: Report value: EC50, system: 5-HT2A receptor (Homo sapiens), compound: COc1cc(C#N)ccc1CCNCc1ccccc1OC
Result string: 4.2

---

Each entry below carries its recorded clearance.
test: plasma and brain PK predicted in humans; details: plasma; Human (predicted); read-out: Cltot (converted)
Number in mL/min/kg, nothing else.

[
  {
    "SMILES_CODE": "COc1cc(C(F)(F)F)ccc1CCNCc1ccccc1O",
    "clearance [mL/min/kg]": 37.9
  }
]

Then there is this compound:
Query string: Please indicate clearance recorded for CSc1ccccc1CNCCc1ccc(C#N)cc1O
Result string: 16.2

---

target: 5-HT4 (Homo sapiens, UniProt Q13639); experiment: 5-HT receptor activity panel (Table 3); type: cell-based; conditions: Table 3; read-out: 5-HT4 EC50
Sequence (Q13639 whole entry, species assumed): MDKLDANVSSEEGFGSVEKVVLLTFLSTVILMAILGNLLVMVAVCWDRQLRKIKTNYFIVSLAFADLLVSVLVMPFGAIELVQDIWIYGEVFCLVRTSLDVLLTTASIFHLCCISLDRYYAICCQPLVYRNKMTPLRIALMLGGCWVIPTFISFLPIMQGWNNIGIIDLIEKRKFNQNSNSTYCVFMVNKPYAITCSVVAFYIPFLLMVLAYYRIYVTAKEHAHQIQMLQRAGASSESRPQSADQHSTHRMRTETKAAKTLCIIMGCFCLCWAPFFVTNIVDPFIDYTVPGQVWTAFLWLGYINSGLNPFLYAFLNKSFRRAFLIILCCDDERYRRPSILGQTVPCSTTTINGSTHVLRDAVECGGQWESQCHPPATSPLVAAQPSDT
MEASUREMENT_KIND: EC50

Query string: Report measured EC50; entry is CSc1ccccc1CNCCc1ccc(C#N)cc1O
Result string: 0.2 nM

---

assay: in vitro hepatocyte clearance, monkey; format: in vitro ADME; conditions: Monkey hepatocytes; read-out: In vitro T1/2
MEASUREMENT_KIND: half-life (min)
Unit min implied. Number only.

[
  {
    "SMILES_CODE": "CSc1ccccc1CNCCc1ccc(C#N)cc1O",
    "UNIT_ABBREV": "min",
    "TEST_VALUE": 2.78
  }
]

As a next step, examine the compound that follows.
Query string: Tell me its half-life given COc1cc(C(F)(F)F)ccc1CCNCc1ccccc1O as the entry.
Result string: 2.97

These measurements were taken from patent US20250074871A1.
